These data points were gathered from the supplement of paper PMC10567573.

B1: KRT13 (parent)
chain: TPGIDLTRVLAEMREQYEAMAERN

variants of: B1; assay: protein stability index of a GFP-peptide fusion (GPS, HEK-293T) (PSI 1-6); higher = more stable; details: c terminus: a fixed tail appended;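 further: lentivirally expressed fusions sorted by FACS into six bins by GFP to DsRed ratio, PSI derived from sequencing read proportions per bin multiplied by bin number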
metricName: protein stability index

sequencechange=A11V obsvalue=3.79
sequencechange=M20A obsvalue=4.74
sequencechange=R14E obsvalue=4.28
sequencechange=I4K obsvalue=3.45
sequencechange=N24I obsvalue=4.63
sequencechange=N24G obsvalue=4.87
sequencechange=T1H obsvalue=4.28
sequencechange=T1Y obsvalue=4.34
sequencechange=R14V obsvalue=3.14
sequencechange=R8W obsvalue=3.25
sequencechange=V9Q obsvalue=4.41
